Hello, the source for this data is the RNAGym collection of RNA variant scans (doi:10.7554/elife.80360), in case you need it.

B1: HDV Ribozyme (parent)
chain: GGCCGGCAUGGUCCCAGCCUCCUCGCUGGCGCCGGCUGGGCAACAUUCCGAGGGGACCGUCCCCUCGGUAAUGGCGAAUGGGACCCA

Variants of: B1
Experiment: self-cleavage, relative activity (ratio to wild type); higher = more cleavage; co-transcriptional
The entries below are paired with their reported self-cleavage.

[
  {
    "Variant key": "C15A G76A",
    "self-cleavage": 0.712
  }
]

Asked: Given C13G C33A , state its recorded self-cleavage.
Given back: 0.0978

Asked: Entry under review: C36U C62A . Reported self-cleavage?
Given back: 0.53

Asked: May I ask what self-cleavage has been recorded for U20A G39A ?
Given back: 0.133
